System: Saccharomyces cerevisiae;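 also: PSI is a weighted mean of sequencing reads over stability bins, variants kept only with over 10 reads, mCherry proximal and sfGFP distal, peptide attached via GGGS linker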
assayProtocol: protein stability index of tFT-peptide fusion (C-terminal peptide) (PSI (0-1 scale)); higher = more stable (slower turnover)
particulars: genetic background: wild type; temperature: 30 C
propertyName: protein stability index

Illustrative cases are given below, each with its answer.
PFSASSILESVI; 0.719
NFPPTPECSFVS; 0.643
ADLEQTWRYRLD; 0.674
KNITIKKSKIKD; 0.61
KKRRTCPNRRDK; 0.554
ALLGIAGGQAAQ; 0.714

Can you look up the measured protein stability index of FTISHWFSGDGE for me?
0.705

Can you look up the measured protein stability index of ICCASALPFDIS for me?
0.784

Can you look up the measured protein stability index of KSEGKKHIDKKR for me?
0.63
